target: T1, ROR1 extracellular domain Fc-fusion, dimer (human, UniProt Q01973 30-406); assay: SPR, immobilised ROR1 dimer, antibody injected, 1:1 model; apparent affinity
T1 construct: also called ROR1 dimer; hROR1 dimeric ECD-Fc fusion protein; not shown: Fc part
T1 sequence (Q01973 30-406): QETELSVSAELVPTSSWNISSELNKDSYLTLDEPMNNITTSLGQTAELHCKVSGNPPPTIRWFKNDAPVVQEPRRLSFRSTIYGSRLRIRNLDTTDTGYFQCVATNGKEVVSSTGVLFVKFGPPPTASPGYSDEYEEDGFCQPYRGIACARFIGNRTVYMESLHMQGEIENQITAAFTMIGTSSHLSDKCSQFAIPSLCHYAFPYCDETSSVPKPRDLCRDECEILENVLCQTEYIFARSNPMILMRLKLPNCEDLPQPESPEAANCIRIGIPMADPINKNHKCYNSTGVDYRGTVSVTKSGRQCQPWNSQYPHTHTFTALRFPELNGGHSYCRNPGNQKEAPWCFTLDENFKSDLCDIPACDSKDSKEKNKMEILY
pKd: −log10 of the molar value.
Here, each record is paired with measured pKd data.

binder	pKd
Antibody 601-103 (antibody, V domains shown) VH: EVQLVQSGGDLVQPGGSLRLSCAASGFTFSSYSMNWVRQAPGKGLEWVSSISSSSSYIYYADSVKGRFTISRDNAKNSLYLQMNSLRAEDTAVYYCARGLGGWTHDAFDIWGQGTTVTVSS VL: QSVLTQPASVSGSPGQSITISCTGTTSDVGGYNYVSWYQQHPGKAPKLMIYDVSKRPSGVSNRFSGSKSGNTASLTISGLQAEDEADYYCSSYTSSSTDVFGTGTKLTVL	7.68
Antibody 601-147 (antibody, V domains shown) VH: QMQLVQSGAEVKKPGASVKVSCKASGYTFSRYYIHWVRQAPGQGLEWMGLINPGGGSTNYAQKFQGRVTMTRDTSTNTVYLELSSLRSDDTAVYYCARDYGTIDARRFDFWGQGTLVTVSS VL: QSALTQPPSASGTPGQRVTISCSGSSSNIGSNYVYWYQQLPGTAPKLLIYRNNQRPSGVPDRFSGSKSGTSASLAISGLRSEDEADYYCAAWDDSLSGYVFGTGTKVTVL	9.05

Every entry's value here was drawn from patent US20180009892A1.
